Target: Ba/F3 cells expressing Tel-FLT3 (Homo sapiens)
Sequence (P36888 27-993 limits assumed, change not shown): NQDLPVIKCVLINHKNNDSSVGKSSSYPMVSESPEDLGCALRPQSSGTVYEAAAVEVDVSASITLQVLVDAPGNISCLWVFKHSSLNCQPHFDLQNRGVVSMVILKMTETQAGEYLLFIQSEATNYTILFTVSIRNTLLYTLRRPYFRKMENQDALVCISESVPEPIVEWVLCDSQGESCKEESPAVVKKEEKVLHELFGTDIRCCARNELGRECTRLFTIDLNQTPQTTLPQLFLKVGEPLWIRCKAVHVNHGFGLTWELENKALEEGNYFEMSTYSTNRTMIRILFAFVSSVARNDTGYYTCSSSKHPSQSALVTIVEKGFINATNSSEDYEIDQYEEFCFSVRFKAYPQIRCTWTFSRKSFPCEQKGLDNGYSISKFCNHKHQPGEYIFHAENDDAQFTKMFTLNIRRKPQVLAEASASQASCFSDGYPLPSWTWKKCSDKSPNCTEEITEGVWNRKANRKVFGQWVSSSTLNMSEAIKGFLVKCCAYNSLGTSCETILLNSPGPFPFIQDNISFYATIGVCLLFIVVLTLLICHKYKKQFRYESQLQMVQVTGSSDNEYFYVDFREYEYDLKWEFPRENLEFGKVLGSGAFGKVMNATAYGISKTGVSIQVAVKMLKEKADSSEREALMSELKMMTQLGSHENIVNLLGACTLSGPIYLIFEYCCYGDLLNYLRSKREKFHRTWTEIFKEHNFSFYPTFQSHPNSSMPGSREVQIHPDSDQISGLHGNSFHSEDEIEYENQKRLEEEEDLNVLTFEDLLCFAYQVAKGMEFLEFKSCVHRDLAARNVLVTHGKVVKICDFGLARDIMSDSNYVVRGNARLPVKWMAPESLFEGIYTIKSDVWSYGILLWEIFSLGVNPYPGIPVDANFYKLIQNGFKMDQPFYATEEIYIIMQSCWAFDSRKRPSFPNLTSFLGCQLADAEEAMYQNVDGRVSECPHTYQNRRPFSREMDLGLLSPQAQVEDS
Conditions: read-out: IC50 in BaF3/Tel-FLT3 cellular assay
pIC50: −log10 of the molar value.
parameter measured: pIC50

* CCN1CCN(c2cc3cc[nH]c(=O)c3c(Nc3ccc(N4CCOCC4)cc3)n2)CC1 | 6.28

###

Listed below: pIC50 values for each entry.
Molecular target: Ba/F3 cells transformed with Tel-Syk (Homo sapiens, UniProt P43405)
Settings: read-out: IC50 in BaF3/Tel-Syk cellular assay
pIC50: −log10 of the molar value.
parameter measured: pIC50

* CCN1CCN(c2cc3cc[nH]c(=O)c3c(Nc3ccc(N4CCOCC4)cc3)n2)CC1 | 6.92
* O=c1[nH]ccc2cc(-c3ccccc3)nc(Nc3ccc(N4CCOCC4)cc3)c12 | 6.82

###

Target: Ba/F3 cells transformed with Tel-KDR (Homo sapiens)
Sequence (P35968 20-1356 limits assumed, change not shown): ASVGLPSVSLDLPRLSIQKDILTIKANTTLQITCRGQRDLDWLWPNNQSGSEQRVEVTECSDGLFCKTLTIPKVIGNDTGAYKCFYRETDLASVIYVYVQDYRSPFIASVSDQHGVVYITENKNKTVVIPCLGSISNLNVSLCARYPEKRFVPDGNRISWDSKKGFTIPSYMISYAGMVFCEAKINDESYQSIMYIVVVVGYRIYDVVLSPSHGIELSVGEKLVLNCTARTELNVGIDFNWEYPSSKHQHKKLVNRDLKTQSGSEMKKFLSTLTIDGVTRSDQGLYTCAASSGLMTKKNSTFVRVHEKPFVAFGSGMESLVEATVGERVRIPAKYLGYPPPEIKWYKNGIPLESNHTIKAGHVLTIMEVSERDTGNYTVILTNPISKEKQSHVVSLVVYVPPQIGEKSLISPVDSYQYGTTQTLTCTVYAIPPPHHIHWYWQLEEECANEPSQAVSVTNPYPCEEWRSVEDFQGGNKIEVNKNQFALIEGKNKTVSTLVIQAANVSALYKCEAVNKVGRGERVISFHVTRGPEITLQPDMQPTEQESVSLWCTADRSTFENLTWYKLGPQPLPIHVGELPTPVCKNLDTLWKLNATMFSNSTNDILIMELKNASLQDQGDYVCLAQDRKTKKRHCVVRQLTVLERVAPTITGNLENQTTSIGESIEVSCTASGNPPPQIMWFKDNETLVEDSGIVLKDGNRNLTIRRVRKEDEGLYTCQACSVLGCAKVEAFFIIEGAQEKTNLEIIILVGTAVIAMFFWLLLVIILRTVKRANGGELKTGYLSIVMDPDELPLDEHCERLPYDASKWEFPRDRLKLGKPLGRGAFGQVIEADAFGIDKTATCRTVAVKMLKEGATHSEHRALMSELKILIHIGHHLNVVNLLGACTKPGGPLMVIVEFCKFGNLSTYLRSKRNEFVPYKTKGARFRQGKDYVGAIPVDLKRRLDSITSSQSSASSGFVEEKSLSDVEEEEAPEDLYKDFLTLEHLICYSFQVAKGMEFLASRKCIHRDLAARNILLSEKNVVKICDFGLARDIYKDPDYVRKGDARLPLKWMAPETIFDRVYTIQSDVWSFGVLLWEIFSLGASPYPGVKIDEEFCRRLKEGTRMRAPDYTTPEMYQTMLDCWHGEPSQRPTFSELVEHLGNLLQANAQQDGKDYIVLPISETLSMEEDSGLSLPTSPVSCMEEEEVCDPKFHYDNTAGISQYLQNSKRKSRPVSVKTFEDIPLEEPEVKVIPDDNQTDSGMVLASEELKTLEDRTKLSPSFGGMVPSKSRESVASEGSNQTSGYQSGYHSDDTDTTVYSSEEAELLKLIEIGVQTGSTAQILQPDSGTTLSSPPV
Conditions: read-out: IC50 in BaF3/Tel-KDR cellular assay
pIC50: −log10 of the molar value.
parameter measured: pIC50

- CCN1CCN(c2cc3cc[nH]c(=O)c3c(Nc3ccc(N4CCOCC4)cc3)n2)CC1: 5.30
- O=c1[nH]ccc2cc(-c3ccccc3)nc(Nc3ccc(N4CCOCC4)cc3)c12: 6.57

###

Target: Ba/F3 cells expressing Tel-FMS (Homo sapiens)
Sequence (P07333 20-972 limits assumed, change not shown): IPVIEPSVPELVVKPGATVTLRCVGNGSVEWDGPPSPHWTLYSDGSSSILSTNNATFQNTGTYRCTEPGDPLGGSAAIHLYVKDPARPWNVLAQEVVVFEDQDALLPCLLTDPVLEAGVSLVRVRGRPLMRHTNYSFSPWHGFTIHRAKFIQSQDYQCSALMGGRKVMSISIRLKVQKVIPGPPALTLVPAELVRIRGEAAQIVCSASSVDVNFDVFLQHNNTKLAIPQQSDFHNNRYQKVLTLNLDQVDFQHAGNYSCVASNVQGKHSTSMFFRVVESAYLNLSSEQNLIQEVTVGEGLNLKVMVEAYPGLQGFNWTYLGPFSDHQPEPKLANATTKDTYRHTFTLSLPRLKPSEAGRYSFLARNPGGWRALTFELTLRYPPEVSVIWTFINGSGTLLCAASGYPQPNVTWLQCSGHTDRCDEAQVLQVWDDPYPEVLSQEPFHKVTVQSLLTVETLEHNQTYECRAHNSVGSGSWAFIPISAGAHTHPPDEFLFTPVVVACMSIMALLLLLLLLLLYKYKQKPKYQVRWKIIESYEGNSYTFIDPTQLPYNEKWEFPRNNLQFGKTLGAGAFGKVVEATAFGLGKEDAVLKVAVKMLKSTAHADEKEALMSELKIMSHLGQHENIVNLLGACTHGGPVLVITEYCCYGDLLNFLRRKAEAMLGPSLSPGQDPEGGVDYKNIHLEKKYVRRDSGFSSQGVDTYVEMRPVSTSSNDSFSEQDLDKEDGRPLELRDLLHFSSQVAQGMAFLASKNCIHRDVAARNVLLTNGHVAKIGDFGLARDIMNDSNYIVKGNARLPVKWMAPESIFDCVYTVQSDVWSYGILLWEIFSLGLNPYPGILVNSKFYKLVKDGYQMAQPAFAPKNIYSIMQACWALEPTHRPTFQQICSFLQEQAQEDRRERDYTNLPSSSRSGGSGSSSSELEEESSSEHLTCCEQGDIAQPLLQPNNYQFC
Settings: read-out: IC50 in BaF3/Tel-FMS cellular assay
pIC50: −log10 of the molar value.
Measured pIC50, listed per entry for reference.
parameter measured: pIC50

* O=c1[nH]ccc2cc(-c3ccccc3)nc(Nc3ccc(N4CCOCC4)cc3)c12 [No 11] | 7.70
* CCN1CCN(c2cc3cc[nH]c(=O)c3c(Nc3ccc(N4CCOCC4)cc3)n2)CC1 [No 83] | 6.30
